molecular target: K-Ras^G12C : hSOS1 interaction (Homo sapiens); test: Biochemical assay 1: K-Ras^G12C interaction assay with hSOS1 (HTRF); assay type: binding; conditions: read-out: Assay 1 (KRAS-SOS Interaction) activity expressed as IC50
assayMetric: pIC50
When answering, recall that pIC50 equals minus log10 of the concentration in mol/L, and write that number alone.

molecule="COc1ccc2oc(-c3cccc([C@@H](C)Nc4nc(C)nc5cc(OC)c(OC)cc45)c3)cc2c1 [Example 66]" resultnumber=5.46

[ask] Could you share which pIC50 value was measured for COC(=O)c1cc2c(C(C)Nc3nc(C)nc4cc(OC)c(OC)cc34)cccc2s1 (stereo not shown) [Example 3] ?
[reply] 6.95

[ask] And what about the molecule COc1cc2nc(C)nc(NC(C)c3ccc(-c4ccccc4CO)s3)c2cc1OC (stereo not shown) [Example 244] ?
[reply] 6.55

[ask] And what about the molecule COc1cc2nc(C)nc(NC(C)c3ccc(-c4cnn(C5CCCC5)c4)s3)c2cc1OC (stereo not shown) [Example 221] ?
[reply] 5.51
